target: mAChR M1 (UniProt P11229); test: mAChR M1 cell-based functional assay (calcium mobilization, potentiation of EC20 acetylcholine response); conditions: positive allosteric modulator activity, concentration-dependent increase in EC20 acetylcholine response, CHO-K1 cells; >10 μM estimated where no plateau but >20% increase in ACh response
pEC50: −log10 of the molar value.
REPORTED METRIC: pEC50

INSERT INTO assay_data (molecule, numeric_value) VALUES
  ('Cn1cc(-c2cc(F)c(CN3Cc4ccc5nncn5c4C3=O)c(F)c2)cn1 [Compound 3]', 6.18),
  ('Cn1cc2cc(-c3cc(F)c(CN4Cc5ccc6nncn6c5C4=O)c(F)c3)ccc2n1 [Compound 6]', 6.31);

P. Cn1cc2c(-c3ccc(CN4Cc5ccc6nncn6c5C4=O)c(F)c3)cccc2n1 [Compound 2]
Q. Cc1cc(-c2ccc(CN3Cc4ccc5nnc(C)n5c4C3=O)c(F)c2)cc2cn(C)nc12 [Compound 20]
Task item: // max by pEC50 over [ P , Q ] Answer by quoting the chosen item's label.
Reply: P
(P: 6.16, Q: 5.68)
